// values below are reported IC50
molecular target: full-length beta-Catenin (Uniprot ID P35222) (Homo sapiens); construct: 10 nM full-length beta-Catenin (Uniprot ID P35222); assay: Fluorescence polarization IC50 (beta-catenin / 5FAM-TCF4 10-53 competition); type: binding; conditions: fluorescence polarization; read-out: beta-Catenin FP IC50
Sequence (P35222 whole entry): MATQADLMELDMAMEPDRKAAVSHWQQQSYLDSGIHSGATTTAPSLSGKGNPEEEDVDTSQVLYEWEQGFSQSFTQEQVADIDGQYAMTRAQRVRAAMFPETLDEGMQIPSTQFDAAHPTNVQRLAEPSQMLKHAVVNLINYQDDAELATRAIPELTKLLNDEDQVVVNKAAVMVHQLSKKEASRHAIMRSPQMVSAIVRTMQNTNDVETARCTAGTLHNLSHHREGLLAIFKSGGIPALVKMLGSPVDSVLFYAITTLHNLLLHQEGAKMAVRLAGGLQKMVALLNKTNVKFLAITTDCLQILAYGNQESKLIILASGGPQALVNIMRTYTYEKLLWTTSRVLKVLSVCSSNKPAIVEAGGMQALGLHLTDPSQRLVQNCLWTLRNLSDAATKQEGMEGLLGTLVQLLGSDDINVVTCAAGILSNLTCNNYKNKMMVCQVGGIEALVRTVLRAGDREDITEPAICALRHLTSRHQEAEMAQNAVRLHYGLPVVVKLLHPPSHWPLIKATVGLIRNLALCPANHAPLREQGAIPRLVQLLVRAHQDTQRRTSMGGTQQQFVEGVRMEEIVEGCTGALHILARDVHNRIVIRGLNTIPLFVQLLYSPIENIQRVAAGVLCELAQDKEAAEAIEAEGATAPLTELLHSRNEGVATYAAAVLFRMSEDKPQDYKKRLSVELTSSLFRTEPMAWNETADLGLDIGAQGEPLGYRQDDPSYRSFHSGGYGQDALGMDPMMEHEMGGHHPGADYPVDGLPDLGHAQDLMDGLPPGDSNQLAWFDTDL

molecule: CC(=O)N1CCC[C@H]1C(=O)N[C@@H](CC(=O)O)C(=O)N[C@@H](CC(C)(C)C)C(=O)N[C@]1(C)CCCC=CCCCOC(=O)N2CC[C@@](C(=O)N[C@@H](Cc3ccsc3)C(=O)N[C@@H](Cc3csc4ccccc34)C(=O)N[C@@H](CCC(N)=O)C(N)=O)(C2)NC(=O)[C@H](CC(C)C)NC(=O)[C@H](Cc2ccccc2)NC(=O)[C@H](C)NC(=O)[C@H](C)NC(=O)[C@H](CC(=O)O)NC(=O)[C@H](CC(=O)O)NC1=O [I-1181]
unit_of_measurement: nM
IC50: 297
//
molecule: CC(=O)N1CCC[C@]12CC=CCCCC1(CCCC=CCCCOC(=O)N3CC[C@@](C(=O)N[C@@H](Cc4ccsc4)C(=O)N[C@@H](Cc4csc5ccccc45)C(=O)N[C@@H](CCC(N)=O)C(N)=O)(C3)NC(=O)[C@H](CC(N)=O)NC(=O)[C@H](Cc3ccccc3)NC(=O)[C@H](C)NC(=O)C3(CCCC3)NC(=O)[C@H]([C@@H](C)O)NC(=O)[C@H](CC(N)=O)NC1=O)NC(=O)[C@H](CC(C)(C)C)NC(=O)[C@H](CC(=O)O)NC2=O (stereo partly drawn) [I-2493]
unit_of_measurement: nM
IC50: 267
//
molecule: CC(=O)N1CCC[C@]12CC=CCCCC1(CCCC=CCCCOC(=O)N3CC[C@@](C(=O)N[C@@H](CC4CCC4)C(=O)N[C@@H](Cc4csc5ccccc45)C(=O)N[C@@H](CO)C(N)=O)(C3)NC(=O)[C@H](CC(C)C)NC(=O)[C@H](Cc3ccccc3)NC(=O)[C@H](C)NC(=O)[C@H](C)NC(=O)[C@H](Cc3cccc(C(=O)O)c3)NC(=O)[C@H](CC(=O)O)NC1=O)NC(=O)[C@H](CC(C)(C)C)NC(=O)[C@H](CC(=O)O)NC2=O (stereo partly drawn) [I-1898]
unit_of_measurement: nM
IC50: 22
//
molecule: CC(=O)N1CCC[C@]12CC=CCCCC1(CCCC=CCCCOC(=O)N3CC[C@@](C(=O)N[C@@H](Cc4ccsc4)C(=O)N[C@@H](Cc4csc5ccccc45)C(=O)N[C@@H](CC(N)=O)C(N)=O)(C3)NC(=O)[C@H](CC(C)C)NC(=O)[C@H](Cc3ccccc3)NC(=O)[C@H](C)NC(=O)[C@H](C)NC(=O)[C@H](CC(=O)O)NC(=O)[C@H](CC(=O)O)NC1=O)NC(=O)[C@H](CC(C)(C)C)NC(=O)[C@H](CC(=O)O)NC2=O (stereo partly drawn) [I-1492]
unit_of_measurement: nM
IC50: 5
//
molecule: CC(=O)N1CCC[C@]12CC=CCCCC1(CCCC=CCCCOC(=O)N3CC[C@@](C(=O)N[C@@H](Cc4ccsc4)C(=O)N[C@@H](Cc4csc5ccccc45)C(=O)N[C@@H](CCC(N)=O)C(N)=O)(C3)NC(=O)[C@H](CC(N)=O)NC(=O)[C@H](Cc3ccccc3)NC(=O)[C@H](C)NC(=O)[C@H](C)NC(=O)[C@H](CN(CC(=O)O)CC(F)(F)F)NC(=O)[C@H](CC(=O)O)NC1=O)NC(=O)[C@H](CC(C)(C)C)NC(=O)C[C@H](CC(=O)O)NC2=O (stereo partly drawn) [I-1161]
unit_of_measurement: nM
IC50: 24
//
molecule: CC(=O)N1CCC[C@]12CC=CCCCC1(CCCC=CCCCOC(=O)N3CC[C@@](C(=O)N[C@@H](Cc4ccccc4Cl)C(=O)N[C@@H](Cc4csc5ccccc45)C(=O)N[C@H](C(N)=O)[C@@H](C)O)(C3)NC(=O)[C@H]([C@@H](C)O)NC(=O)[C@H](Cc3ccccc3)NC(=O)[C@H](C)NC(=O)[C@H](CCCCNC(C)C)NC(=O)[C@H](CC(=O)O)NC(=O)[C@H](CC(=O)O)NC1=O)NC(=O)[C@H](CC(C)(C)C)NC(=O)[C@H](CC(=O)O)NC2=O (stereo partly drawn) [I-1273]
unit_of_measurement: nM
IC50: 9
//
molecule: CC(=O)N1CCC[C@]12CC=CCCCC1(CCCC=CCCCOC(=O)N3CC[C@@](C(=O)N[C@@H](Cc4c(F)c(F)c(F)c(F)c4F)C(=O)N[C@@H](Cc4csc5ccccc45)C(=O)N[C@@H](CCC(N)=O)C(N)=O)(C3)NC(=O)[C@H](CC(C)C)NC(=O)[C@H](Cc3ccccc3)NC(=O)[C@H](C)NC(=O)[C@H](C)NC(=O)[C@H](CC(=O)O)NC(=O)[C@H](CC(=O)O)NC1=O)NC(=O)[C@H](CC(C)(C)C)NC(=O)[C@H](CC(=O)O)NC2=O (stereo partly drawn) [I-1185]
unit_of_measurement: nM
IC50: 203
//
molecule: CC(=O)N1CCC[C@]12CC=CCCCC1(CCCC=CCCCCCC[C@@](C)(C(=O)N[C@@H](Cc3ccccc3)C(=O)N[C@@H](Cc3csc4ccccc34)C(=O)N[C@H](Cc3c[nH]cn3)C(N)=O)NC(=O)[C@H](CC(N)=O)NC(=O)[C@H](Cc3ccccc3)NC(=O)[C@H](C)NC(=O)[C@H](C)NC(=O)[C@H](CCC(=O)O)NC(=O)[C@H](CC(=O)O)NC1=O)NC(=O)[C@H](CC(C)C)NC(=O)[C@H](CC(=O)O)NC2=O (stereo partly drawn) [I-745]
unit_of_measurement: nM
IC50: 80
//
molecule: CC(=O)N1CCC[C@]12CC=CCCCC1(CCCC=CCCCOC(=O)N3CC[C@@](C(=O)N[C@@H](Cc4ccccc4C(F)(F)F)C(=O)N[C@@H](Cc4csc5ccccc45)C(=O)N[C@@H](CCC(=O)N4CCOCC4)C(N)=O)(C3)NC(=O)[C@H](CCC(=O)N(C)C)NC(=O)[C@H](Cc3ccccc3)NC(=O)[C@H](C)NC(=O)[C@H](C)NC(=O)[C@H](Cc3cccc(C(=O)O)c3)NC(=O)[C@H](CC(=O)O)NC1=O)NC(=O)[C@H](CC(C)(C)C)NC(=O)[C@H](CC(=O)O)NC2=O (stereo partly drawn) [I-2544]
unit_of_measurement: nM
IC50: 11
